Kindly state pIC50 for each of the entries shown.
Tested on: T. equiperdum (BoTat 1.1)
protocol.notes: In vitro drug susceptibility assay, T. equiperdum
Assay type: cell-based
condition.notes: Trypanosoma equiperdum; Table 2; two independent repeat experiments
API: returns pIC50 as number; meaning -log10 of concentration in mol/L.

Consider `CSc1ncnc2c1ccn2[C@@H]1O[C@H](CO)[C@@H](O)[C@H]1O` . Its measured pIC50 is 7.40

Reported pIC50 ( `C=CCSc1ncnc2c1ccn2[C@@H]1O[C@H](CO)[C@@H](O)[C@H]1O` ) = 7.60

Measured pIC50, `OC[C@H]1O[C@@H](n2ccc3c(Sc4ccccc4)ncnc32)[C@H](O)[C@@H]1O` : 7.59
